- target.desc: T1, G9a and GLP (Homo sapiens, UniProt Q96KQ7+Q9H9B1)
- T1 sequence (Q96KQ7 2-1210 limits assumed): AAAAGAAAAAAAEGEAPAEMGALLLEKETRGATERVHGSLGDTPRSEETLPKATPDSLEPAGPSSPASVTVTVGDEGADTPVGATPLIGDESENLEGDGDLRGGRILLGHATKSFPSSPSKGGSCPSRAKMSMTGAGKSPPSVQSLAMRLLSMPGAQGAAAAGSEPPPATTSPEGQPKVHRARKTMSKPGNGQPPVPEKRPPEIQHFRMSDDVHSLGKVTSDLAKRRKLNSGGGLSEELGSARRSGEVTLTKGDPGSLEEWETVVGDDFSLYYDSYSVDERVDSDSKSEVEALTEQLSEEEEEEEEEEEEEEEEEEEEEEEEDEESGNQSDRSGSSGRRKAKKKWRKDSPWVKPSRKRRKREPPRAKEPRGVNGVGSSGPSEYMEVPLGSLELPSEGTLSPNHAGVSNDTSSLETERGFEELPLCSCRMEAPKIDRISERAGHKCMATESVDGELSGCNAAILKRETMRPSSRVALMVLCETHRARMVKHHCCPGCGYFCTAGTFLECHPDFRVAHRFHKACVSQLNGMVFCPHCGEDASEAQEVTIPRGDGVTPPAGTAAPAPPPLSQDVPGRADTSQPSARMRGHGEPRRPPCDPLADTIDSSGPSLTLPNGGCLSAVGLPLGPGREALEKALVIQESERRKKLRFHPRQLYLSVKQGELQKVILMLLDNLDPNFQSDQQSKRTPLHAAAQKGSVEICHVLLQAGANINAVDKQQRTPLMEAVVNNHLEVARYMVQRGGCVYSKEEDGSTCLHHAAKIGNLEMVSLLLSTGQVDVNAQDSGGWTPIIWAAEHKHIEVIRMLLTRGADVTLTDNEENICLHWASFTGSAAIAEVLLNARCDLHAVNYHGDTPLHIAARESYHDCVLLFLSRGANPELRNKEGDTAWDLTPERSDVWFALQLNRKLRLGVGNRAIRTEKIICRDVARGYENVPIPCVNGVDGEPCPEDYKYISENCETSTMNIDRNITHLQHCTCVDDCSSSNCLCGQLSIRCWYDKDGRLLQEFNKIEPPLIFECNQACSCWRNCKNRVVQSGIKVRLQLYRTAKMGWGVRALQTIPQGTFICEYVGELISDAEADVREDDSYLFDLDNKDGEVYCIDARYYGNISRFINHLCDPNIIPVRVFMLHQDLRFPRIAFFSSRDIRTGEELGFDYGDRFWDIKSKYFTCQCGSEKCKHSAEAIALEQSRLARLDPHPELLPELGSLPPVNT
- T1 sequence (Q9H9B1 2-1298 limits assumed): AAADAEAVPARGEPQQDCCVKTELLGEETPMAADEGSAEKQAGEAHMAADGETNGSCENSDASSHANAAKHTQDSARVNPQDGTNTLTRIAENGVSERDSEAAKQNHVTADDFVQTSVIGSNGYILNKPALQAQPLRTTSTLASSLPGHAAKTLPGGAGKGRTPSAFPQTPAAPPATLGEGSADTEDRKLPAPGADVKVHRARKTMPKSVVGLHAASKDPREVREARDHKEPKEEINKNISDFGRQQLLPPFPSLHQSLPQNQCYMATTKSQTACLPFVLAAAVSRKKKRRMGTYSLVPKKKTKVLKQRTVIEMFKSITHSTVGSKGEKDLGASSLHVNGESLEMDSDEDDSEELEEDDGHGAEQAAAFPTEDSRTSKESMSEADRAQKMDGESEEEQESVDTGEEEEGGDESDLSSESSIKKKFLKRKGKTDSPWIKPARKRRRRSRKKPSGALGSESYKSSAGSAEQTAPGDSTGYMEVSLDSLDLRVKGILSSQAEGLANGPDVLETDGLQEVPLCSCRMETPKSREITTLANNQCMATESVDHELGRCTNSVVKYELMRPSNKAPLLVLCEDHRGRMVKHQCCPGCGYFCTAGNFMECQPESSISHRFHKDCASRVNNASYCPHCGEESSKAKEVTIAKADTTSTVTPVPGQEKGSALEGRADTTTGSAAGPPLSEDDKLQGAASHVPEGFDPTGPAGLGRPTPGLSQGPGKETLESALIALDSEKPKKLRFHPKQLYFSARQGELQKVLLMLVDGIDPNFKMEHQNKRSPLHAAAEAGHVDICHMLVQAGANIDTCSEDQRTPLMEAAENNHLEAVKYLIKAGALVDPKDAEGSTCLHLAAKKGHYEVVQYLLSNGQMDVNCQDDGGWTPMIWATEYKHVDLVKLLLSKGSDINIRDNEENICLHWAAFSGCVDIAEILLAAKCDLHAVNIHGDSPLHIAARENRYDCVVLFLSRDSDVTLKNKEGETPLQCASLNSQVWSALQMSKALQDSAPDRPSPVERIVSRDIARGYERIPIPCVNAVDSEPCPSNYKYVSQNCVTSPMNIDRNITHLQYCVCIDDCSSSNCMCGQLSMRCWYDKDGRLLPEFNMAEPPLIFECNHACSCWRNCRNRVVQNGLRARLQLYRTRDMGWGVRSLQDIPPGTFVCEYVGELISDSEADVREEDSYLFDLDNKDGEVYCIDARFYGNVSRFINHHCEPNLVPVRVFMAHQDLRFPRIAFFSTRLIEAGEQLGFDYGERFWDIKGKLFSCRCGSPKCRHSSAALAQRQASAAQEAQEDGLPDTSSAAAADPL
- assay: Triple SILAC pull-down after UNC0638 treatment of 293T cells, DMSO/UNC0638 ratio of protein captured by 3×MBT;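 also: mass spectrometry (Q-Exactive) SILAC quantitation, DMSO/UNC0638 ratio computed after subtracting 3×MBTD355N mutant pull-down background, only proteins with at least twofold 3×MBT over mutant signal considered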
- Assay type: cell-based
- Design: endogenous in cells; host or cells: HEK 293T
- conditions.used: SILAC ratio DMSO/UNC0638 of protein pulled down with 3xMBT; UNC0638 in light SILAC media
Would you mind telling me the reported Relative to UNC0638 UNC Light of each entry?
Respond numerically; units are log base 2 and should not be typed.

Exam item: Reported Relative to UNC0638 UNC Light for CBR1 (protein, UniProt P16152 2-277, looked up) Carbonyl reductase [NADPH] 1: SSGIHVALVTGGNKGIGLAIVRDLCRLFSGDVVLTARDVTRGQAAVQQLQAEGLSPRFHQLDIDDLQSIRALRDFLRKEYGGLDVLVNNAGIAFKVADPTPFHIQAEVTMKTNFFGTRDVCTELLPLIKPQGRVVNVSSIMSVRALKSCSPELQQKFRSETITEEELVGLMNKFVEDTKKGVHQKEGWPSSAYGVTKIGVTVLSRIHARKLSEQRKGDKILLNACCPGWVRTDMAGPKATKSPEEGAETPVYLALLPPDAEGPHGQFVSEKRVEQW : what is it?
Marked response: 1.14

Exam item: Form field: reported Relative to UNC0638 UNC Light of HNRNPA0 (protein, UniProt Q13151 1-305, looked up) Heterogeneous nuclear …: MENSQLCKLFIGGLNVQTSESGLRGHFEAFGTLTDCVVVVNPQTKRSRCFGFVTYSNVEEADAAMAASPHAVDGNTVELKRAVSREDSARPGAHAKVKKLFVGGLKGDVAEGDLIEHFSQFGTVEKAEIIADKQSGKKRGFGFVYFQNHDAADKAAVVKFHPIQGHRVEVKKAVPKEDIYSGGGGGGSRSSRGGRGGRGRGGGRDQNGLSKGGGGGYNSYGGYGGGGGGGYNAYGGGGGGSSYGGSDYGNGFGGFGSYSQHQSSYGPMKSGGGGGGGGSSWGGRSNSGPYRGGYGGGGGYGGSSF
Marked response: 0.28

Exam item: Which Relative to UNC0638 UNC Light value belongs to HN1L (protein, UniProt Q9H910 1-190, looked up) Jupiter microtubule …: MFQVPDSEGGRAGSRAMKPPGGESSNLFGSPEEATPSSRPNRMASNIFGPTEEPQNIPKRTNPPGGKGSGIFDESTPVQTRQHLNPPGGKTSDIFGSPVTATSRLAHPNKPKDHVFLCEGEEPKSDLKAARSIPAGAEPGEKGSARKAGPAKEQEPMPTVDSHEPRLGPRPRSHNKVLNPPGGKSSISFY ?
Marked response: 1.22

Exam item: Give its Relative to UNC0638 UNC Light value. Item: EIF4E2 (protein, UniProt O60573 1-245, looked up) Eukaryotic translation …: MNNKFDALKDDDSGDHDQNEENSTQKDGEKEKTERDKNQSSSKRKAVVPGPAEHPLQYNYTFWYSRRTPGRPTSSQSYEQNIKQIGTFASVEQFWRFYSHMVRPGDLTGHSDFHLFKEGIKPMWEDDANKNGGKWIIRLRKGLASRCWENLILAMLGEQFMVGEEICGAVVSVRFQEDIISIWNKTASDQATTARIRDTLRRVLNLPPNTIMEYKTHTDSIKMPGRLGPQRLLFQNLWKPRLNVP
Marked response: 0.06

Exam item: Fill in the blank: the reported Relative to UNC0638 UNC Light of ZC3HAV1L (protein, UniProt Q96H79 2-300, looked up) Zinc finger CCCH-type …: AEPTVCSFLTKVLCAHGGRMFLKDLRGHVELSEARLRDVLQRAGPERFLLQEVETQEGLGDAEAEAAAGAVGGGGTSAWRVVAVSSVRLCARYQRGECQACDQLHFCRRHMLGKCPNRDCWSTCTLSHDIHTPVNMQVLKSHGLFGLNENQLRILLLQNDPCLLPEVCLLYNKGEALYGYCNLKDKCNKFHVCKSFVKGECKLQTCKRSHQLIHAASLKLLQDQGLNIPSVVNFQIISTYKHMKLHKMLENTDNSSPSTEHSQGLEKQGVHAAGAAEAGPLASVPAQSAKKPCPVSCEK is ____.
Marked response: 0.16

Exam item: Using the record for SNRPA1 (protein, UniProt P09661 2-255, looked up) U2 small nuclear …: VKLTAELIEQAAQYTNAVRDRELDLRGYKIPVIENLGATLDQFDAIDFSDNEIRKLDGFPLLRRLKTLLVNNNRICRIGEGLDQALPCLTELILTNNSLVELGDLDPLASLKSLTYLSILRNPVTNKKHYRLYVIYKVPQVRVLDFQKVKLKERQEAEKMFKGKRGAQLAKDIARRSKTFNPGAGLPTDKKKGGPSPGDVEAIKNAIANASTLAEVERLKGLLQSGQIPGRERRSGPTDDGEEEMEEDTVTNGS , report its Relative to UNC0638 UNC Light.
Marked response: 0.22

Exam item: Quick one: Relative to UNC0638 UNC Light of SRP9 (protein, UniProt P49458 2-86, looked up) Signal recognition particle 9 …: PQYQTWEEFSRAAEKLYLADPMKARVVLKYRHSDGNLCVKVTDDLVCLVYKTDQAQDVKKIEKFHSQLMRLMVAKEARNVTMETE ?
Marked response: 0.01

Exam item: Request the reported Relative to UNC0638 UNC Light associated with EEF1D (protein, UniProt P29692 2-281, looked up) Elongation factor 1-delta: ATNFLAHEKIWFDKFKYDDAERRFYEQMNGPVAGASRQENGASVILRDIARARENIQKSLAGSSGPGASSGTSGDHGELVVRIASLEVENQSLRGVVQELQQAISKLEARLNVLEKSSPGHRATAPQTQHVSPMRQVEPPAKKPATPAEDDEDDDIDLFGSDNEEEDKEAAQLREERLRQYAEKKAKKPALVAKSSILLDVKPWDDETDMAQLEACVRSIQLDGLVWGASKLVPVGYGIRKLQIQCVVEDDKVGTDLLEEEITKFEEHVQSVDIAAFNKI
Marked response: 0.20

Exam item: I am curious: what Relative to UNC0638 UNC Light value has been reported for PPP1CB (protein, UniProt P62140 2-327, looked up) Serine/threonine-protein …: ADGELNVDSLITRLLEVRGCRPGKIVQMTEAEVRGLCIKSREIFLSQPILLELEAPLKICGDIHGQYTDLLRLFEYGGFPPEANYLFLGDYVDRGKQSLETICLLLAYKIKYPENFFLLRGNHECASINRIYGFYDECKRRFNIKLWKTFTDCFNCLPIAAIVDEKIFCCHGGLSPDLQSMEQIRRIMRPTDVPDTGLLCDLLWSDPDKDVQGWGENDRGVSFTFGADVVSKFLNRHDLDLICRAHQVVEDGYEFFAKRQLVTLFSAPNYCGEFDNAGGMMSVDETLMCSFQILKPSEKKAKYQYGGLNSGRPVTPPRTANPPKKR ?
Marked response: 0.18

Exam item: Find the recorded Relative to UNC0638 UNC Light belonging to DSTN (protein, UniProt P60981 2-165, looked up) Destrin: ASGVQVADEVCRIFYDMKVRKCSTPEEIKKRKKAVIFCLSADKKCIIVEEGKEILVGDVGVTITDPFKHFVGMLPEKDCRYALYDASFETKESRKEELMFFLWAPELAPLKSKMIYASSKDAIKKKFQGIKHECQANGPEDLNRACIAEKLGGSLIVAFEGCPV and report it.
Marked response: 0.04

Exam item: Consider the molecule shown here: KIN (protein, UniProt O60870 1-393, looked up) DNA/RNA-binding protein KIN17: MGKSDFLTPKAIANRIKSKGLQKLRWYCQMCQKQCRDENGFKCHCMSESHQRQLLLASENPQQFMDYFSEEFRNDFLELLRRRFGTKRVHNNIVYNEYISHREHIHMNATQWETLTDFTKWLGREGLCKVDETPKGWYIQYIDRDPETIRRQLELEKKKKQDLDDEEKTAKFIEEQVRRGLEGKEQEVPTFTELSRENDEEKVTFNLSKGACSSSGATSSKSSTLGPSALKTIGSSASVKRKESSQSSTQSKEKKKKKSALDEIMEIEEEKKRTARTDYWLQPEIIVKIITKKLGEKYHKKKAIVKEVIDKYTAVVKMIDSGDKLKLDQTHLETVIPAPGKRILVLNGGYRGNEGTLESINEKTFSATIVIETGPLKGRRVEGIQYEDISKLA What is its recorded Relative to UNC0638 UNC Light?
Marked response: −0.04

Data origin: patent US20140274782A1
